Assay Overview: NCI Yeast Anticancer Drug Screen. Data for the mec2-1 strain (AID 157)
Stated Conditions: S. cerevisiae mec2-1 strain, at 11.0 µM
Description: Growth inhibition of yeast strains with defined genetic alterations is measured as a screen for potential anti-cancer activity. Selected strains with alterations in DNA damage repair or cell cycle control were exposed to compounds and growth inhibition was measured relative to vehicle treated controls. The strain used in this assay is mec2-1
Compounds without any hit were thinned out: in the full panel of roughly 79,000, 15% have a hit. Activity calls are given as the source filed them. Cut-off read from the data, not from the text of the source: active = growth inhibition above about 70%; inactive = the rest.
Permitted responses: y = active, n = inactive

Compound	Discrete Label
O=[N+]([O-])c1cccc2nc3ccccc3c(NCCCn3ccnc3[N+](=O)[O-])c12	y
Cc1cc(N(CCOS(C)(=O)=O)CCOS(C)(=O)=O)ccc1C=Nc1ccc(-c2nc(Cc3ccccc3)sc2C)cc1	y
Oc1ccc2c(c1)C(O)CCCC2 (stereo not given)	n

Recorded test outcome, item `COc1ccc2[nH]cc([C@@H]3C4CCC(C4)[C@H]3NCc3cccc(CN[C@H]4C5CCC(C5)[C@@H]4c4c[nH]c5ccc(OC)cc45)c3)c2c1`
n

// next record Cn1c(=O)c2c(nc(N)n2C2OC(CO)C(O)C2O)n(C)c1=O (stereo not given)
n

* * *

# growth inhibition per entry
Assay Overview: NCI Yeast Anticancer Drug Screen. Data for the rad50 strain (AID 155);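 note: 0% = growth of vehicle-only cultures of the same strain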
Stated Conditions: S. cerevisiae rad50 strain growth inhibition; at 11.0 µM; stronger effect = higher value
Compounds without any hit were thinned out: in the full panel of roughly 79,000, 15% have a hit.
Numbers only; they are read as %.

Molecule	Reported Endpoint	Recorded Result
O=[N+]([O-])c1ccc2c(c1)/C(=N/N=C1c3ccccc3Cc3ccccc31)c1cc([N+](=O)[O-])cc([N+](=O)[O-])c1-2	growth inhibition	96

Lab note: next molecule to report on.
Find the recorded growth inhibition belonging to `CSc1nc(C)c(CCOC(C)=O)c(N=P(c2ccccc2)(c2ccccc2)c2ccccc2)n1` and report it.
-21

* * *

Assay Overview: NCI Yeast Anticancer Drug Screen. Data for the bub3 strain (AID 167)
Stated Conditions: S. cerevisiae bub3 mutant strain, at 3.7 µM, stronger effect = higher value
About 79,000 compounds went through this panel and 15% of them were active in at least one assay; those are over-represented in the sample as a whole.
Reported Endpoint: growth inhibition (%)
Numbers only; they are read as %.

Here are 2 compounds together with their reported answers.
Compound	growth inhibition, %
CC(NCCN(C)C)C1CCC2C3CCc4cc(O)ccc4C3CCC12C (stereo unspecified)	11
COc1cc([C@@H]2c3cc4c(cc3[C@@H](Nc3ccc(NC(=O)c5cc([N+](=O)[O-])cn5C)cc3)[C@H]3COC(=O)[C@H]23)OCO4)cc(OC)c1O	0

Find the recorded growth inhibition belonging to `N#CC(C#N)=NNc1ccc(S(=O)(=O)O)cc1` and report it.
-29

// next record `Cc1cccc2c1nc1ccc(Cl)cc1[n+]2C`
10

// next record `CN(C)[C@@H]1C(=O)C(C(N)=O)=C(O)[C@@]2(O)C(=O)C3=C(O)c4c(O)cccc4C[C@H]3C[C@@H]12`
-7

// next record `N/C(=N/N=C/c1cc(Br)cc(Br)c1O)NO`
-60

// next record CCCCCCCCCCCC(O)S(=O)(=O)O (stereo unspecified)
-1

* * *

Assay Overview: NCI Yeast Anticancer Drug Screen. Data for the rad14 strain (AID 159);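 note: 0% = growth of vehicle-treated control cultures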
Stated Conditions: S. cerevisiae rad14 strain growth inhibition; at 1.2 µM; stronger effect = higher value
This is part of a sample that, as a whole, favours compounds with a hit. Of some 79,000 tested, about 15% had one in any assay.
# growth inhibition per entry
Numbers only; they are read as %.

Compound	U	growth inhibition
O=[N+]([O-])c1cc(S(=O)(=O)Nc2ccccc2)ccc1Nc1ccccc1	%	-26
CN1C(=O)c2ccc3ccccc3c2C1=O	%	3
CS(=O)(=O)OCCN(CCOS(C)(=O)=O)c1ccc(C=Nc2ccc(-c3csc(COc4ccccc4)n3)cc2)cc1	%	-25
O=C1C=C(N2CCN(c3ccccn3)CC2)C(=O)c2c(O)ccc(O)c21	%	9
COc1ccc(C(=O)c2ccccc2C(=O)c2ccccc2OC)cc1	%	-3
CN(C)CCNc1ccc2ncnc3c2c1C(=O)c1ccccc1-3	%	16
N=C1N=Nc2nc(C3(c4nc5n(c4O)C(=N)N=N5)Cc4ccccc4C3=O)c(O)n21 (stereo not given)	%	7
Cc1ccc2nc(-c3cccc([N+](=O)[O-])c3)oc(=O)c2c1	%	-10

Find the recorded growth inhibition belonging to `COc1cccc(/C=N/C(/N=C/c2cccc(OC)c2O)c2cccc(OC)c2O)c1O` and report it.
1

// next record `O=C1NC(=O)c2ccc([N+](=O)[O-])c3cccc1c23`
-2

* * *

Assay Overview: NCI Yeast Anticancer Drug Screen. Data for the rad52 strain (AID 147);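 note: 0% = growth of vehicle-treated control cultures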
Stated Conditions: S. cerevisiae rad52 mutant growth inhibition; at 100.0 µM; stronger effect = higher value
Description: Growth inhibition of yeast strains with defined genetic alterations is measured as a screen for potential anti-cancer activity. Selected strains with alterations in DNA damage repair or cell cycle control were exposed to compounds and growth inhibition was measured relative to vehicle treated controls. The strain used in this assay is rad52
The panel holds about 79,000 compounds, 15% with a hit somewhere; the sample as a whole holds those more often.
Reported Endpoint: growth inhibition (%)
Numbers only; they are read as %.

Compound	Reported Endpoint	U	Recorded Result
C=C1C(=O)OC2CC1C(OC(C)=O)C/C(C)=C/CC/C(C)=C\CCC2(C)O (stereo unspecified)	growth inhibition	%	88
CC[n+]1oc(C(=O)c2ccc(Cl)cc2)c(-c2ccccc2)c1-c1ccccc1.[Cl][Fe]([Cl])([Cl])[Cl]	growth inhibition	%	75
CCCCCCCCCCCC(O)S(=O)(=O)O (stereo unspecified)	growth inhibition	%	55
Cc1cc(C)c(NC(=S)NC(=O)c2ccccc2)cc1C	growth inhibition	%	-44

Find the recorded growth inhibition belonging to `COc1cc(CSc2ccc(O)cc2)cc(O)c1O` and report it.
8

// next record `CC(C)(CCCCC(C)(C)[N+](C)(C)C)[N+](C)(C)C`
-1

* * *

Assay Overview: NCI Yeast Anticancer Drug Screen. Data for the rad50EPP+ strain (AID 151);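 note: 0% = growth of vehicle-treated control cultures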
Stated Conditions: S. cerevisiae rad50 mutant strain, at 11.0 µM, stronger effect = higher value
This is part of a sample that, as a whole, favours compounds with a hit. Of some 79,000 tested, about 15% had one in any assay.
Reported Endpoint: growth inhibition (%)
Numbers only; they are read as %.

Here are 4 compounds together with their reported answers.
Compound	Reported Endpoint	Recorded Result
Cc1ccc(Cl)cc1NC(=O)OCCN(C)C(=O)Nc1cc(Cl)ccc1C	growth inhibition	-14
C[C](C)(C)[Ge]([O][Ge]([c]1ccccc1)[c]1ccccc1)([O][Ge]([c]1ccccc1)[c]1ccccc1)[C](C)(C)C	growth inhibition	5
COc1ccc(C(NCCNC(c2ccc(OC)c(OC)c2)c2cc3c(cc2O)OCO3)c2cc3c(cc2O)OCO3)cc1OC (stereo not given)	growth inhibition	10
COc1ccc([N+](=O)[O-])c2c(NCCCN(C)C)c3ccccc3nc12	growth inhibition	13

Lab note: next compound to report on.
Find the recorded growth inhibition belonging to `CC(C)c1ccc(NC(=S)NC(=O)c2ccccc2)cc1` and report it.
47

* * *

Assay Overview: NCI Yeast Anticancer Drug Screen. Data for the CLN2oe strain (AID 163);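 note: 0% = growth of vehicle-only control cultures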
Stated Conditions: S. cerevisiae CLN2oe strain, at 3.7 µM, stronger effect = higher value
Compounds without any hit were thinned out: in the full panel of roughly 79,000, 15% have a hit. The source made the active and inactive calls. Rule as the data show it: active = growth inhibition above about 70%; inactive = the rest.
Reported Endpoint: growth inhibition

Find the recorded growth inhibition belonging to Nc1nc2ccc(NCc3ccc(C(=O)NC(CCC(=O)O)C(=O)O)cc3)cc2c(=O)[nH]1 (stereo not given) and report it.
7% (inactive)

// next record `O=[N+]([O-])c1cc(Cl)cnc1Br`
-1% (inactive)

// next record CC(=O)OCC1OC2OC(=O)NC2C(OC(C)=O)C1OC(C)=O (stereo not given)
2% (inactive)

// next record C=C1CCC(O)C/C1=C/C=C1\CCCC2(C)C1CCC2C(C)CCCC(C)C (stereo not given)
8% (inactive)

// next record `Cc1cc(N(CCOS(C)(=O)=O)CCOS(C)(=O)=O)ccc1C=Nc1ccc(-c2nc(Cc3ccccc3)sc2C)cc1`
0% (inactive)

* * *

Assay Overview: NCI Yeast Anticancer Drug Screen. Data for the mlh1 strain (AID 171);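 note: 0% = growth of vehicle-treated control cultures of the same strain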
Stated Conditions: S. cerevisiae mlh1 strain growth inhibition; at 3.7 µM; stronger effect = higher value
This is part of a sample that, as a whole, favours compounds with a hit. Of some 79,000 tested, about 15% had one in any assay.
# growth inhibition per entry
Numbers only; they are read as %.

Compound	growth inhibition / %
C[Si](C)(C)/C=C/CCNC(C#N)c1ccccc1 (configuration not stated)	-5
O=C(O)C1CC(c2ccccc2)=NN1c1ccccc1 (configuration not stated)	-14

Lab note: next compound to report on.
Find the recorded growth inhibition belonging to `CCC(C)(C)c1ccc(Oc2cccc(C(=O)O)c2)cc1` and report it.
-1

* * *

# growth inhibition per entry
Assay Overview: NCI Yeast Anticancer Drug Screen. Data for the sgs1 strain (AID 173);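 note: 0% = growth of vehicle-only control cultures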
Stated Conditions: S. cerevisiae sgs1 mutant, at 11.0 µM, stronger effect = higher value
Compounds without any hit were thinned out: in the full panel of roughly 79,000, 15% have a hit.
Numbers only; they are read as %.

Here are 8 compounds together with their reported answers.
Compound	Recorded Result
OC(/C=C/c1ccccc1)(Cc1cc(-c2ccccc2)n[nH]1)c1ccccc1 (centres undefined)	4
CCCC/C=C/C(C)(C(=O)OCC)C(=O)OCC	3
Cc1c(C)c(C)c(CSC(=N)N)c(C)c1C	-34
COc1ccc2c(c1)n([O-])c1ccccc1[n+]2=O	41
Cc1c2ccnc(C(=O)NCCN(C)C)c2cc2c3cc(O)ccc3n(C)c12	4
Cc1ccc2nc(-c3cccc([N+](=O)[O-])c3)oc(=O)c2c1	-19
Cc1cc(C)nc(NS(=O)(=O)c2ccc(Nc3c4ccccc4nc4c(C(=O)NCCO)cccc34)cc2)n1	1
Cc1ccccc1N=Cc1cc(Cl)ccc1O	4

Find the recorded growth inhibition belonging to `O=[n+]1c2ccccc2n([O-])c2cc(Br)ccc21` and report it.
97

// next record `Cc1cc(N(CCOS(C)(=O)=O)CCOS(C)(=O)=O)ccc1C=Nc1ccc(-c2csc(-c3ccccc3)n2)c(Cl)c1`
82

// next record `Cc1cc(O)c(C(C)C)cc1C1(c2cc(C(C)C)c(O)cc2C)OC(=O)c2ccccc21`
5

// next record `CC(C)(CCCCC(C)(C)[N+](C)(C)C)[N+](C)(C)C`
-2

// next record `CC(=O)Nc1ccc2c(c1)Cc1cc(N=C3C=CC(=O)O3)ccc1-2`
92

// next record `CN(C)c1nc(=Nc2cccc(Cl)c2)ss1`
95

// next record `Cc1ccc([N+]2=NC(c3ccccc3)=NN(c3ccccc3)C2)cc1`
5

// next record CCCCNC1CCC2(SCCS2)c2[nH]c3ccccc3c21 (centres undefined)
-1

// next record `O=C1Nc2ccccc2/C1=C/c1ccccc1`
10

// next record CCCCCCC(O)CNCc1ccnc2ccc(OC)cc12 (centres undefined)
18

// next record `O=C(O)c1ccccc1/C=N/N=C1c2ccccc2-c2ccccc21`
1

// next record `COc1c(O)c(C=O)c(Br)c(C=O)c1O`
12

// provenance: PubChem BioAssay (NCI)
